Target: Falcipain 2 (Plasmodium falciparum, UniProt Q9N6S8)
Sequence (Q9N6S8 whole entry): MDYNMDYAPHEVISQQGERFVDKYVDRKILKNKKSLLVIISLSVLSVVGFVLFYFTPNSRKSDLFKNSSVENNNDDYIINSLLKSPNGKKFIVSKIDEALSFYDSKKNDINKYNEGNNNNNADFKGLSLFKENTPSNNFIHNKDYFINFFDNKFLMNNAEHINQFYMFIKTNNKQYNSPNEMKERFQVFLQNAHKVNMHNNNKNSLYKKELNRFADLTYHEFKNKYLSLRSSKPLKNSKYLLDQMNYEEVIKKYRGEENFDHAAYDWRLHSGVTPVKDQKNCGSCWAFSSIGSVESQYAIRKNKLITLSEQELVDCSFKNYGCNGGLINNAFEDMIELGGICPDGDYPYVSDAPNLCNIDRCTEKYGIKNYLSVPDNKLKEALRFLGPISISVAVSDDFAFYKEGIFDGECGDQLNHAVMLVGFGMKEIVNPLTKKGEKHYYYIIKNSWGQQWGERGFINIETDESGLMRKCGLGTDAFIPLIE
quantity kind: pKi
Lab note — pKi values are minus log10 of concentrations in M.

Q: What measured pKi goes with O=C(CN1C(=O)[C@@H](COC(=O)Nc2ccc(Cl)cc2C(F)(F)F)N=C(c2ccccc2)c2ccccc21)N[C@H]1CC(=O)O[C@@H]1OCc1ccccc1 ?
Ans: 5.05

Q: Report pKi for CC(C)(C)S[C@H]1OC(=O)C[C@@H]1NC(=O)CN1C(=O)[C@@H](COC(=O)Nc2ccc(Cl)cc2C(F)(F)F)N=C(c2ccccc2)c2ccccc21 please.
Ans: 5.09

Q: Using the record for CC(C)C[C@H](NC(=O)[C@H]1O[C@@H]1C(=O)O)C(=O)NCCCCN=C(N)N [E-64] , report its pKi.
Ans: 4.39

Q: Given the entry O=C(CN1C(=O)[C@@H](COC(=O)Nc2ccc(Cl)cc2C(F)(F)F)N=C(c2ccccc2)c2ccccc21)N[C@H]1CC(=O)OC1O (some centres undefined) , report its measured pKi.
Ans: 5.40
